Values compiled from paper PMC2829052.

TESTED_TARGET: recombinant human HLA-E*0103 (Homo sapiens)
Construct: made in house; host or cells: E. coli
TEST_PROTOCOL: biochemical
Format: binding
pIC50: −log10 of the molar value. Where no end group is shown, it is not given here.
So basically: pIC50 at 5 or higher? That is Satisfied. Lower than 5? That is Not satisfied.

In [3]: df
Out[3]:
                               substance          label
 0                RMPPLGHEL [Peptide 62]      Satisfied
 1  IEPRGAQAL-OH [Peptide 57, IEPRGAQAL]  Not satisfied
 2             EMLTSRGLL-OH [Peptide 37]  Not satisfied
 3             VSNLRTGKL-OH [Peptide 27]  Not satisfied
 4                LMHYRGELL [Peptide 29]  Not satisfied
 5                FMTRLGPLL [Peptide 60]  Not satisfied
 6             REPRRGPRL-OH [Peptide 51]  Not satisfied
 7                WLPPLLTNL [Peptide 69]  Not satisfied
 8             LPAERAHEL-OH [Peptide 31]  Not satisfied
 9                RPANLAFFL [Peptide 59]      Satisfied
10              WMCDRAVDL-OH [Peptide 9]  Not satisfied

---

Here, each record is paired with measured pIC50 data.
TESTED_TARGET: recombinant human HLA-E*0103 (Homo sapiens, UniProt P13747)
Construct: made in house; host or cells: E. coli
TEST_PROTOCOL: biochemical
Type: binding
EXPERIMENTAL_SETUP: concentration of peptide reducing fluorescence of standard peptide VMAPC(Fl)TLLL (100 fmol) by 50%; […]; gel filtration HPLC, emission 528 nm; at least two separate experiments; read-out: Binding
pIC50: −log10 of the molar value. Where no end group is shown, it is not given here.
OBSERVATION_TYPE: pIC50

>>> print(df.to_string())
                      sequence_code                             tested_target  readout_number
0  GMNVTAPAL [Peptide 7, GMNVTAPAL]  recombinant human HLA-E*0103 (Homo sapiens, UniProt P13747)            5.10
1            VLPACLGIL [Peptide 67]  recombinant human HLA-E*0103 (Homo sapiens, UniProt P13747)            4.92
2            VMMSEIAGL [Peptide 32]  recombinant human HLA-E*0103 (Homo sapiens, UniProt P13747)            4.89
